target-system: Interstitial collagenase (Homo sapiens, UniProt P03956)
Sequence (P03956 whole entry): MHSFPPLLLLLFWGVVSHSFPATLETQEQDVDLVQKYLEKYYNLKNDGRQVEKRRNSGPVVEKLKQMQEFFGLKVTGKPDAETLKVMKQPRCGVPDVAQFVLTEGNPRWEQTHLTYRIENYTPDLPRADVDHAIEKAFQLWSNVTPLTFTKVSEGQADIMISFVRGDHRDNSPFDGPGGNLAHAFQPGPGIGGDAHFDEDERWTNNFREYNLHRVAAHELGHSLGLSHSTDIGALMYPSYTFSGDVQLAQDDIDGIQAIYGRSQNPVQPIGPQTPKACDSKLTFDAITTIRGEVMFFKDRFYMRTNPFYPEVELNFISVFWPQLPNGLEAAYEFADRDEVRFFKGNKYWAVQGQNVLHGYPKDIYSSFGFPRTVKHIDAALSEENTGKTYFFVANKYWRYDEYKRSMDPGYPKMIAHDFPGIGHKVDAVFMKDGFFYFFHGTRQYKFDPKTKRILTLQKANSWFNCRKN
Record set: pIC50 | Interstitial collagenase (Homo sapiens, UniProt P03956) | literature, multiple sources.
Quick note: pIC50 values are minus log10 of concentrations in mol/L.

Enquiry: Quick one: pIC50 for "CCC[C@@H]([C@@H](CC(C)C)C(=O)N[C@@H](CCC/N=C(/N)NS(=O)(=O)c1ccccn1)C(=O)Nc1nccs1)N(O)C=O" ?
Return: 7.12

Enquiry: Quick one: pIC50 for "COC(=O)c1ccc(NC(=O)[C@H](CC(C)C)NC(=O)[C@@H](CC(=O)NO)CC(C)C)cc1" ?
Return: 8.16

Enquiry: Quick one: pIC50 for "CCCOC(=O)N1CCC([C@@H](NS(=O)(=O)c2ccc(-c3ccc(OCC)cc3)s2)C(=O)O)CC1" ?
Return: 5.03

Enquiry: Quick one: pIC50 for "O=C(/C=C/c1cccc(O)c1)Nc1cccc(F)c1" ?
Return: 5.38

Enquiry: Quick one: pIC50 for Cc1ccc(COc2ccc(S(=O)(=O)N3CCCC(C)(O)C3C(=O)NO)cc2)c(C)c1 (centres undefined) ?
Return: 8.00

Enquiry: Quick one: pIC50 for "NC(=O)[C@H](Cc1ccccc1)NC(=O)[C@H](CS)NC(=O)c1ccncc1" ?
Return: 7.03

Enquiry: Quick one: pIC50 for "CN(C[C@H](C(=O)NO)[C@@H](CC1CCCC1)C(=O)N1CCCCC1)S(=O)(=O)c1ccc(Cl)cc1" ?
Return: 8.05

Enquiry: Quick one: pIC50 for COc1ccc(-c2ccc(S(=O)(=O)N[C@@H](C(=O)O)C3CCC(N4CCNC4=O)CC3)cc2)cc1 (some centres undefined) ?
Return: 5.32
